Experiment: kinetic analysis, non-endpoint assay at 23° C.
Assay type: biochemical
Conditions: standard error in parenthetical, NDB = activity not robust enough for kinetic characterization
metric: Vmax 2,4-D

For this molecule ( MON-HT4: engineered oxygenase protein, amino acid sequence SEQ ID NO:25 (protein) MHAALTPLTNKYRFIDVQPLTGVLGAEITGVDLREPLDDSTWNEILDAFHTYQVIYFPGQAITNEQHIAFSRRFGPVDPVPLLKSIEGYPEVQMIRREANESGRVIGDDWHTDSTFLDAPPAAVVMYAREVPPYGGDTGFLSMYTAWETLSPTMQATIEGLNVVHSATRVFGSLYQAQNRRYSNTSVKVMDVDAGDRETVHPLVVSHPVTGRRALYCNQVYCQRIEGMTDAESKSLLQFLYEHATKFDFTCRVRWKKDQVLVWDNLCTMHRAVPDYAGKFRYLTRTTVAGDKPSR ), measured Vmax 2,4-D is NDB
